pKi by entry:
# testTarget: Sodium-dependent dopamine transporter (Rattus norvegicus, UniProt P23977)
# Sequence (P23977 whole entry): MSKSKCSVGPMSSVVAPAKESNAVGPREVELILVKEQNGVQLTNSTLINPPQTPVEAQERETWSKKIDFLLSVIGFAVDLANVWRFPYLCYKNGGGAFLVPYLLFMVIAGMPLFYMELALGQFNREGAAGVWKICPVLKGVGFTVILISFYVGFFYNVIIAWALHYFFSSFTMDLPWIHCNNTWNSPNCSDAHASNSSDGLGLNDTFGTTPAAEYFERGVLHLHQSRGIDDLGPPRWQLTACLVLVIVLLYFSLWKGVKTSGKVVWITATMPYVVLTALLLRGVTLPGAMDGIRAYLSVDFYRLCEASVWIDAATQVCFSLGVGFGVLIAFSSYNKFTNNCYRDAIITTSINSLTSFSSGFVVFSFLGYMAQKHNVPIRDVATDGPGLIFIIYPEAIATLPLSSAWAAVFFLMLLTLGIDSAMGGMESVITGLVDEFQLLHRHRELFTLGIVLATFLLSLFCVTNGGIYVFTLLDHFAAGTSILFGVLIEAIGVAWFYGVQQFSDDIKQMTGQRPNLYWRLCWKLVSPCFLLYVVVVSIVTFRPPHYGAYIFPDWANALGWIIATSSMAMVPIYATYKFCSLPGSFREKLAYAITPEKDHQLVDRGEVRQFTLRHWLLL
# assayMethodText: Binding affinity for dopamine transporter
pKi: −log10 of the molar value.
endpointName: pKi

1. O[C@@H](CN1CCN(CCOC(c2ccccc2)c2ccccc2)CC1)c1ccccc1 ... 6.77
2. OCC(c1ccccc1)N1CCN(CCOC(c2ccc(F)cc2)c2ccc(F)cc2)CC1 (racemic) ... 7.32
3. O[C@H](Cc1ccccc1)CN1CCN(CCOC(c2ccccc2)c2ccccc2)CC1 ... 7.60
4. OCC(c1ccccc1)N1CCN(CCOC(c2ccccc2)c2ccccc2)CC1 (racemic) ... 6.92
5. O[C@@H](Cc1ccccc1)CN1CCN(CCOC(c2ccc(F)cc2)c2ccc(F)cc2)CC1 ... 9.12
6. O[C@H](CN1CCN(CCOC(c2ccccc2)c2ccccc2)CC1)c1ccccc1 ... 7.52
7. O[C@@H](CN1CCN(CCOC(c2ccc(F)cc2)c2ccc(F)cc2)CC1)c1ccccc1 ... 7.59
8. O[C@H](CN1CCN(CCOC(c2ccc(F)cc2)c2ccc(F)cc2)CC1)c1ccccc1 ... 7.96
9. O[C@@H](Cc1ccccc1)CN1CCN(CCOC(c2ccccc2)c2ccccc2)CC1 ... 8.64
10. Fc1ccc(C(OCCN2CCN(CCc3ccccc3)CC2)c2ccc(F)cc2)cc1 ... 8.10
11. OC(Cc1ccccc1)CN1CCN(CCOC(c2ccc(F)cc2)c2ccc(F)cc2)CC1 (racemic) ... 8.64
12. O[C@H](Cc1ccccc1)CN1CCN(CCOC(c2ccc(F)cc2)c2ccc(F)cc2)CC1 ... 7.92

###

So I've got Ki readings for Sodium-dependent serotonin transporter (Rattus norvegicus, UniProt P31652), take a look.
endpointName: Ki

1) O[C@H](CN1CCN(CCOC(c2ccc(F)cc2)c2ccc(F)cc2)CC1)c1ccccc1 ... 0.077 µM
2) O[C@H](Cc1ccccc1)CN1CCN(CCOC(c2ccc(F)cc2)c2ccc(F)cc2)CC1 ... 0.16 µM
3) O[C@H](CN1CCN(CCOC(c2ccccc2)c2ccccc2)CC1)c1ccccc1 ... 1.4 µM
4) OCC(c1ccccc1)N1CCN(CCOC(c2ccc(F)cc2)c2ccc(F)cc2)CC1 (racemic) ... 2.5 µM
5) OC(Cc1ccccc1)CN1CCN(CCOC(c2ccc(F)cc2)c2ccc(F)cc2)CC1 (racemic) ... 0.12 µM
6) Fc1ccc(C(OCCN2CCN(CCc3ccccc3)CC2)c2ccc(F)cc2)cc1 ... 0.036 µM
7) O[C@@H](Cc1ccccc1)CN1CCN(CCOC(c2ccc(F)cc2)c2ccc(F)cc2)CC1 ... 0.23 µM

###

# testTarget: Monoamine transporters; serotonin & dopamine (Rattus norvegicus) (UniProt P31652+P23977)
# Sequence (P23977 whole entry, looked up): as the sequence (P23977 whole entry) above
# Sequence (P31652 whole entry, looked up): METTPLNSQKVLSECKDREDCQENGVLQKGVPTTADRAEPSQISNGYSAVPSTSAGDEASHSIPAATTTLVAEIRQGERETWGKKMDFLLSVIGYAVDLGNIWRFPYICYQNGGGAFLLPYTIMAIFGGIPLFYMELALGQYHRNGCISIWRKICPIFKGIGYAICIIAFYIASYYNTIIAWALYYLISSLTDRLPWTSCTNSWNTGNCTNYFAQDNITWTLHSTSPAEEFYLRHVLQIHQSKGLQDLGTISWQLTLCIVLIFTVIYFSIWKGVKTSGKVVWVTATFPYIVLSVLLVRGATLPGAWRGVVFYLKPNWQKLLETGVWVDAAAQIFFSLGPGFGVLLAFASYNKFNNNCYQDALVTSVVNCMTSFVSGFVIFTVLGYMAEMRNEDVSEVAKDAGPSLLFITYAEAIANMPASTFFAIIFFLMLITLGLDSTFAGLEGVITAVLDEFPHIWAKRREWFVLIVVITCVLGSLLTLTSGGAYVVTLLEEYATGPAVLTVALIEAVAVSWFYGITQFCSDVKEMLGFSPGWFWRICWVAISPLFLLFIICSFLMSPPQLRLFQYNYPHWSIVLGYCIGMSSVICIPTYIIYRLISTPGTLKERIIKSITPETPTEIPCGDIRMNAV
# assayMethodText: Selectivity ratio for serotonin transporter to dopamine transporter
# Assay type: protein assay
endpointName: Ratio

1. O[C@@H](Cc1ccccc1)CN1CCN(CCOC(c2ccc(F)cc2)c2ccc(F)cc2)CC1 ... 307
2. O[C@@H](CN1CCN(CCOC(c2ccccc2)c2ccccc2)CC1)c1ccccc1 ... 2
3. O[C@H](Cc1ccccc1)CN1CCN(CCOC(c2ccccc2)c2ccccc2)CC1 ... 72
4. Fc1ccc(C(OCCN2CCN(CCc3ccccc3)CC2)c2ccc(F)cc2)cc1 ... 5
5. O[C@H](Cc1ccccc1)CN1CCN(CCOC(c2ccc(F)cc2)c2ccc(F)cc2)CC1 ... 13
6. OCC(c1ccccc1)N1CCN(CCOC(c2ccc(F)cc2)c2ccc(F)cc2)CC1 (racemic) ... 52
7. O[C@H](CN1CCN(CCOC(c2ccc(F)cc2)c2ccc(F)cc2)CC1)c1ccccc1 ... 7
8. O[C@H](CN1CCN(CCOC(c2ccccc2)c2ccccc2)CC1)c1ccccc1 ... 47
9. OCC(c1ccccc1)N1CCN(CCOC(c2ccccc2)c2ccccc2)CC1 (racemic) ... 32
10. OC(Cc1ccccc1)CN1CCN(CCOC(c2ccc(F)cc2)c2ccc(F)cc2)CC1 (racemic) ... 52
11. O[C@@H](Cc1ccccc1)CN1CCN(CCOC(c2ccccc2)c2ccccc2)CC1 ... 939
12. O[C@@H](CN1CCN(CCOC(c2ccc(F)cc2)c2ccc(F)cc2)CC1)c1ccccc1 ... 0.5

###

Read-out record for Sodium-dependent serotonin transporter (Rattus norvegicus, UniProt P31652): log10(Ki)
endpointName: log10(Ki) (log10 of the value in nM)

1) O[C@H](Cc1ccccc1)CN1CCN(CCOC(c2ccccc2)c2ccccc2)CC1 ... 3.26
2) O[C@@H](CN1CCN(CCOC(c2ccc(F)cc2)c2ccc(F)cc2)CC1)c1ccccc1 ... 1.11
3) O[C@@H](CN1CCN(CCOC(c2ccccc2)c2ccccc2)CC1)c1ccccc1 ... 2.52
4) OCC(c1ccccc1)N1CCN(CCOC(c2ccccc2)c2ccccc2)CC1 (racemic) ... 3.58
5) O[C@@H](Cc1ccccc1)CN1CCN(CCOC(c2ccccc2)c2ccccc2)CC1 ... 3.33
